- Test system: MS2 coat protein
- PROTOCOL_DESCRIPTION: apparent KD of MS2 coat protein; higher = weaker reporter binding
- COND: Eterna round: R107; input ligand: tryptophan 2.4 mM
ASSAY_METRIC: apparent KD of MS2 coat protein (nM)
Give just the numeric value; nM need not be written.

apparent KD of MS2 coat protein reading for UUCAGCUAGUCGGCCGCCACUACAUGAGCAUCAGCCAUGUUCCUAAAACACUGCUUCGGCAGUGGUAGGACCGGGACUAGCUGAG : 25.9

apparent KD of MS2 coat protein reading for UAAUAAGUACCGGUCCUCAGAUCCUCAUGACGAGGACCGGUACGGCCGCCACUCGAAACAUGAGGAUCACCCAUGUAAUAAUAAU [|T'-M'-Trp-Ms2|_Design 1] : 18.3

apparent KD of MS2 coat protein reading for AGCACUGUGACGGCCGCCACUACAUAAUAGGGUGGUCAGGUUCAUAUACAUGAGGAUCACCCAUGUAGGACCGGGUCUCAGUGCA [Omei Trp Exc B A v6] : 9.03

apparent KD of MS2 coat protein reading for CCUCGACAUGAGGAUCACCCAUGUAGAGAUACCAGCCUGUGAGAUGGCCCUUGGCAGCUCAUAUAGGGUACGGGAGUCGUUUCGA [Eslaqu] : 22.1

apparent KD of MS2 coat protein reading for CGCGGACCACCUGAUACCAGCGCAGUCAUGCAUGAACCCAACAUGAGGAUCACCCAUGUACGCCCUUGGCAGCAGGGAAAAGUCG [theeternabot_exclusion_MS2_Theo_B_8] : 163

apparent KD of MS2 coat protein reading for UGUACUAUGUGAAGGAGCGCCACAUGAGGAUCACCCAUGUAAACAUGAGGAUCACCCAUGUGGCAGGUAGGUCGCACAUAGUACU [ArgBS - Double MS2 - I don't expect this to work] : 78.7

apparent KD of MS2 coat protein reading for AUUCAUAAUUGGGUAAAUGGAUAGAGUGAUACCAGUCAUAUACAUGACCCUUGGCAGCACAAGGACAUGAGGAUCACCCAUGUCA [Same State Theophylline A GF22] : 28.9

apparent KD of MS2 coat protein reading for ACGUCCGGGUUAAUCGUGGGCAUGGUCGAUACCAGUAUUUUAAUCUACCCUUGGCAGCGACAUGAGGAUCACCCAUGUGCGAUGA [XTheo A #17] : 17

apparent KD of MS2 coat protein reading for AGAUGCCACUGUGGAUAGCACGAUGCCGAUACCAGCUAGGAAACUAGCCCUUGGCAGCGGUACAUGAGGAUCACCCAUGUAUCCU [EThA NP+V+V2 #9] : 12.9

apparent KD of MS2 coat protein reading for UAGAUAGAGGGAAGGAGCGCGAUAACAUAACAUGAGGAUCACCCAUGUAAGAAAUUAAUAAUGCAGGUAGGUCGCCCAAGAUGAU [Same State Arginine B gf1] : 17.1

apparent KD of MS2 coat protein reading for AAGACAUGAGGAUCACCCAUGUCGACAAAACGAGGACCGGUACGGCCGCCACUCGAAAGCAAAUGAGCGCAUGCGGCCUGGGUAU [Exclusion Tryp A GF2] : 12.7

apparent KD of MS2 coat protein reading for AAACAUUGCUCAGAUACCAGACAUGAGGAUCACCCAUGUACCAAGGUAAAGAAAUAACGUGUCCCUUGGCAGCUGAGCAAUGAAA [MAT - Exclusion Theophlline B - Mod of Eli - D10] : 10.9
